Assay: Cmax in rat at 3 mg/kg, po and 3 mg/kg, iv
Assay type: ADME, organism-based
Conditions: in vivo
measurementLabel: Cmax (nM)
Report only the number, with the unit nM understood.

Form field Cmax, entry CC(=O)c1sc(-c2ccc(OCCCOc3ccc4c(c3)CC[C@H]4CC(=O)O)nc2)nc1C : 2800

* * *

Target: Peroxisome proliferator-activated receptor delta (Homo sapiens, UniProt Q03181)
Sequence (Q03181 whole entry): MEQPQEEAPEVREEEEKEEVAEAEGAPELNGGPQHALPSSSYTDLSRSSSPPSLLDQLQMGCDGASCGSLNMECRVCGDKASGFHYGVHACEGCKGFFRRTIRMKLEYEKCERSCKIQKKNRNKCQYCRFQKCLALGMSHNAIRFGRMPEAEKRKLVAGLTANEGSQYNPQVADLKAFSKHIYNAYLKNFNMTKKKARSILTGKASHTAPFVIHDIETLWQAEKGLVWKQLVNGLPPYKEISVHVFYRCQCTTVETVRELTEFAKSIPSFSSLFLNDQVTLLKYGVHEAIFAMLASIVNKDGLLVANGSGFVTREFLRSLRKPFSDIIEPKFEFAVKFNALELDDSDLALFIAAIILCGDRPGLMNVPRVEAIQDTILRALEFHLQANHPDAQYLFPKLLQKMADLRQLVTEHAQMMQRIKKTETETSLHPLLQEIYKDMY
Test: Agonist activity at human PPARdelta by FRET assay
measurementLabel: pEC50
For clarity, pEC50 is expressed as the negative log10 of concentration in mol/L.

CCc1ccc(-c2ncc(F)c(N(C)CCCOc3ccc4c(c3)CC[C@H]4CC(=O)O)n2)cc1 has a reported pEC50 of 7.80

Data point: Cc1cnc(-c2ccc(F)cc2)nc1N(C)CCCOc1ccc2c(c1)CC[C@H]2CC(=O)O ; pEC50 = 8.15

Per the records, this compound ( CC(=O)c1ccc(-c2ncc(C)c(N(C)CCCOc3ccc4c(c3)CC[C@H]4CC(=O)O)n2)cc1 ) has pEC50 equal to 7.08

Further cases:
CCc1ccc(-c2nc(C)cc(N(C)CCCOc3ccc4c(c3)CC[C@H]4CC(=O)O)n2)cc1 yielded pEC50 of 7.96

The recorded pEC50 for entry Cc1nc(-c2ccc(OCCCOc3ccc4c(c3)CC[C@H]4CC(=O)O)nc2)sc1C equals 8.30

Entry CCOc1csc(-c2ccc(OCCCOc3ccc4c(c3)CC[C@H]4CC(=O)O)nc2)n1 — recorded pEC50 = 8.52

For Cc1cccc(-c2ncc(C)c(N(C)CCCOc3ccc4c(c3)CC[C@H]4CC(=O)O)n2)c1 the compound record lists pEC50 as 7.39

Just so you know, measured pEC50 for CCOc1cccc(-c2ncc(C)c(N(C)CCCOc3ccc4c(c3)CC[C@H]4CC(=O)O)n2)c1 came out at 8.15

The reported pEC50 of the compound CCc1csc(-c2ccc(OCCCOc3ccc4c(c3)CC[C@H]4CC(=O)O)nc2)n1 was 8.52

So, Cc1cnc(-c2ccc(Cl)cc2)nc1N(C)CCCOc1ccc2c(c1)CC[C@H]2CC(=O)O ? Its pEC50 was 8.15

Item: CC(=O)c1sc(-c2ccc(OCCCOc3ccc4c(c3)CC[C@H]4CC(=O)O)nc2)nc1C | pEC50: 8.05
